Target: Phospholipid hydroperoxide glutathione peroxidase GPX4 (Homo sapiens) (UniProt P36969)
Sequence (P36969 whole entry, looked up): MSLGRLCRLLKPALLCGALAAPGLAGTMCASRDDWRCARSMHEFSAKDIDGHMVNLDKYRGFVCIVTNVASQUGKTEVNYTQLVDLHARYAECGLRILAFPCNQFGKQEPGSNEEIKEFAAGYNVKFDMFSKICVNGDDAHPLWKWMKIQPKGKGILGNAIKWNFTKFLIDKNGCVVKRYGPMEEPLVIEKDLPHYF
Experiment: Primary qHTS Assay for Inhibitors of Recombinant Selenoprotein Glutathione Peroxidase 4 (GPX4) (AID 1845192); note: nearly all actives have a fitted effect of over 65% in size
Conditions: recombinant GPX4, GR-coupled NADPH fluorescence, 15 min; series mostly up to 50 µM
Inconclusive results are not listed. Active and inactive are the calls of the source. Calls come from the whole dose curve; as a rule, active = well fitted inhibition curve with a large enough effect; inconclusive = small, poorly fitted or top-dose-only effect; inactive = flat fitted curve, though single readings scatter. Bridge positions count the residues as written; N and C are the ends. Square brackets hold non-standard residues; d marks the D form. Peptide text beside a SMILES is read from it. * marks the point of attachment. Octanoyl(6-Me) = CCC(C)CCCCC(=O)*; Dab = NCC[CH](N)C(=O)O
Outcome codes: active, inactive

{"columns": ["Molecule", "Tested on", "Category label"],
 "data": [
  ["CCCCCCCCCC(=O)OCCN1CCN(CCCN2c3ccccc3Sc3ccc(C(F)(F)F)cc32)CC1", "Phospholipid hydroperoxide glutathione peroxidase GPX4 (Homo sapiens) (UniProt P36969)", "inactive"],
  ["O=C(O)c1ccccc1C(c1ccc(O)cc1)c1ccc(O)cc1", "Phospholipid hydroperoxide glutathione peroxidase GPX4 (Homo sapiens) (UniProt P36969)", "inactive"],
  ["CCC(C)CCCCC(=O)NC(CCN)C(=O)NC(C(=O)NC(CCN)C(=O)NC1CCNC(=O)C(C(C)O)NC(=O)C(CCN)NC(=O)C(CCN)NC(=O)C(CC(C)C)NC(=O)C(Cc2ccccc2)NC(=O)C(CCN)NC1=O)C(C)O (configuration not stated) ({Octanoyl(6-Me)}-[Dab]T[Dab][Dab][Dab]FL[Dab][Dab]T; lactam 4-C; configuration not given here)", "Phospholipid hydroperoxide glutathione peroxidase GPX4 (Homo sapiens) (UniProt P36969)", "inactive"],
  ["CCCCCCCCN=C(N)NC(N)=NCc1ccc(Cl)c(Cl)c1", "Phospholipid hydroperoxide glutathione peroxidase GPX4 (Homo sapiens) (UniProt P36969)", "inactive"],
  ["C=C[C@@H]1C[C@]1(NC(=O)[C@@H]1C[C@@H]2CN1C(=O)[C@H](C(C)(C)C)NC(=O)O[C@@H]1C[C@H]1CCCCCc1nc3ccc(OC)cc3nc1O2)C(=O)NS(=O)(=O)C1CC1", "Phospholipid hydroperoxide glutathione peroxidase GPX4 (Homo sapiens) (UniProt P36969)", "active"],
  ["CCCCCCCCCCCCC[N+](C)(C)Cc1ccccc1", "Phospholipid hydroperoxide glutathione peroxidase GPX4 (Homo sapiens) (UniProt P36969)", "inactive"],
  ["CC1(C)C[C@H]1C(=O)N/C(=C\\CCCCSC[C@@H](N)C(=O)O)C(=O)O", "Phospholipid hydroperoxide glutathione peroxidase GPX4 (Homo sapiens) (UniProt P36969)", "inactive"]
]}

====

Test: HepG2 viability counterscreen (readout 1: protease activity) against the NCATS DSHEA and TCM libraries (AID 1794841);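 note: cells exposed to compounds for about 24 h before the protease read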
Conditions: qHTS concentration series; series mostly up to 27.3 µM
Results filed as inconclusive are left out. Active and inactive are the calls of the source. The call rests on the fitted dose curve; in most records, active means well fitted curve in the direction sought with a large enough effect; inconclusive means small, poorly fitted or top-dose-only effect, or another doubt; inactive means no such curve, though single readings can be large or run the other way.

{"columns": ["Compound", "activity change, negative = inhibition"],
 "data": [
  ["C=C1C[C@@]23CC[C@H]4[C@@](C)(CCC[C@@]4(C)C(=O)O[C@@H]4O[C@H](CO)[C@@H](O)[C@H](O)[C@H]4O)[C@@H]2CC[C@]1(O[C@@H]1O[C@H](CO)[C@@H](O)[C@H](O[C@@H]2O[C@H](CO)[C@@H](O)[C@H](O)[C@H]2O)[C@H]1O[C@@H]1O[C@@H](C)[C@H](O)[C@@H](O)[C@H]1O)C3", "inactive"],
  ["O=c1cc(-c2ccc(O)c(O)c2)oc2cc(O[C@@H]3O[C@@H](CO)[C@@H](O)[C@@H](O)[C@H]3O)cc(O)c12", "inactive"],
  ["O=C(O)CC(O)(C(=O)O)C(O)C(=O)O (stereo not drawn)", "inactive"]
]}
